tested on: Allodynia caused by PGE2; assay: inhibitory effect on allodynia caused by intrathecal injection of PGE2; assay type: in vivo, male ddY mice; conditions: mixture of PGE2 (10ng/body) and compound (10ng/body) injected intrathecally, mice, touch-stimulus score 5 min after administration; 100% = all subjects score 2
# % of allodynia expression, Allodynia caused by PGE2 annotations
State just the number; it will be interpreted in %.

Field request: % of allodynia expression, Allodynia caused by PGE2 | item: O=C(O)CCC/C=C\[C@H]1[C@@H]2CC[C@@H](C2)[C@@H]1CNS(=O)(=O)c1ccccc1I [comparison compound 2, reference compound]
83.3

Field request: % of allodynia expression, Allodynia caused by PGE2 | item: O=C(O)CCC/C=C\[C@H]1[C@@H]2CC[C@@H](C2)[C@@H]1CNS(=O)(=O)c1ccc(F)c(F)c1 [comparison compound 4, reference compound]
75.0
